measured target: human TGR5 receptor (Homo sapiens, UniProt Q8TDU6)
Sequence (Q8TDU6 whole entry): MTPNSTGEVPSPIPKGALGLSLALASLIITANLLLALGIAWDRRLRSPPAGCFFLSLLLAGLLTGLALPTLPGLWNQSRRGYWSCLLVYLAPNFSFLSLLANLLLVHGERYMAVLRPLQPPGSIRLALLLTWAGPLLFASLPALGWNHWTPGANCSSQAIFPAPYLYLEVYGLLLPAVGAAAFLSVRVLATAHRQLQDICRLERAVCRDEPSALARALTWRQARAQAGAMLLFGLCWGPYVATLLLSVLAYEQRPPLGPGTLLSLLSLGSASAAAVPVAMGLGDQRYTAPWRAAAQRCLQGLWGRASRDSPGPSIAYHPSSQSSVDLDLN
experimental details: Human TGR5 cAMP production assay (hTGR5-CHO cells, DiscoveRx cAMP XS+ kit)
condition label: luminescent cAMP assay, read-out: Human TGR5 Lum. cAMP Activity (EC50)
measurement type: EC50

smiles	reading
CN(C)c1cc(N2CCC[C@@H](C(=O)NCCc3ccc(C(F)(F)F)cc3)C2)nc(C(F)(F)F)n1	100 to 999 nM

For the compound shown here, N#Cc1ccc(CCNC(=O)[C@@H]2CCCN2c2cc(N3CCC(CCNS(=O)(=O)CCNC(=N)N)CC3)nc(C(F)(F)F)n2)cc1 , give the reported EC50.
< 100 nM

For the compound shown here, Cc1ccc(-c2cc(N3CCC[C@H]3C(=O)NCCc3ccc(C#N)cc3)nc(C(F)(F)F)n2)s1 , give the reported EC50.
100 to 999 nM

For the compound shown here, N#Cc1ccc(CCNC(=O)[C@@H]2CCCN2c2cc(N3CCC(CCCC(=O)NCCCS(=O)(=O)O)CC3)nc(C(F)(F)F)n2)cc1 , give the reported EC50.
< 100 nM

For the compound shown here, N#Cc1ccc(CCNC(=O)[C@@H]2CCN2c2cc(N3CCC(CCNc4c(NCCS(=O)(=O)O)c(=O)c4=O)CC3)nc(C(F)(F)F)n2)cc1 , give the reported EC50.
< 100 nM

For the compound shown here, O=C(O)CCNC(=O)N1CCN(c2cc(N3CCC[C@@H](C(=O)NCCc4ccc(C(F)(F)F)cc4)C3)nc(C(F)(F)F)n2)CC1 , give the reported EC50.
100 to 999 nM

* * *

experimental details: Pharmacokinetic profile in mice after oral gavage
Type: in vivo, mouse
condition label: mouse; fasted male Hilltop mice, 10 mg/kg oral gavage, plasma; read-out: Cmax
measurement type: Cmax (ng/mL)

smiles	Cmax (ng/mL)
N#Cc1ccc(CCNC(=O)[C@@H]2CCN2c2cc(N3CCC(CCCC(=O)NCP(=O)(O)O)CC3)nc(C(F)(F)F)n2)cc1	36

a. O=C(O)CCCC1CCN(c2cc(N3CCC[C@@H](C(=O)NCCc4ccc(C(F)(F)F)cc4)C3)nc(C(F)(F)F)n2)CC1
b. N#Cc1ccc(CCNC(=O)[C@@H]2CCCN2c2cc(N3CCC(CCCNC(=O)NCCS(N)(=O)=O)CC3)nc(C(F)(F)F)n2)cc1
For the two items a and b , which reports the higher Cmax value? The response must carry the label of the picked entry.
a

* * *

EC50 for assorted compounds
measured target: mouse TGR5 receptor (Mus musculus, UniProt Q80SS6)
Construct: host or cells: HEK293-EBNA (293 c18, ATCC CRL10852)
Sequence (Q80SS6 1-329): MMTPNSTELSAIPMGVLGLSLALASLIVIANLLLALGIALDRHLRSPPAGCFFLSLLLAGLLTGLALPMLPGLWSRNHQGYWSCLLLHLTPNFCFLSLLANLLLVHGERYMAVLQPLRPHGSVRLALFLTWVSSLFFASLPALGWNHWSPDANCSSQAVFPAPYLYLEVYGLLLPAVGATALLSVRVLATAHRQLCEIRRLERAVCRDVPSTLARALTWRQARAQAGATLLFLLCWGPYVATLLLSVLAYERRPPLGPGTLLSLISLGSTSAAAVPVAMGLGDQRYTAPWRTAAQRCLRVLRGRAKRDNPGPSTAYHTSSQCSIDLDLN
experimental details: Mouse TGR5 luminescent cAMP production assay (HEK293-EBNA cells, DiscoveRx cAMP XS+ kit)
Format: cell-based
condition label: HEK293-EBNA cells overexpressing mouse TGR5, luminescent cAMP assay; read-out: Mouse TGR5 Lum. cAMP Activity (EC50)

Illustrative cases are given below, each with its answer.
smiles	measured target	EC50
O=C(NCCc1ccc(C(F)(F)F)cc1)[C@@H]1CCCN(c2cc(NC3CCOCC3)nc(C(F)(F)F)n2)C1	mouse TGR5 receptor (Mus musculus, UniProt Q80SS6)	< 100 nM
N#Cc1ccc(CCNC(=O)[C@@H]2CCCN2c2cc(-c3cccnc3)nc(C(F)(F)F)n2)cc1	mouse TGR5 receptor (Mus musculus, UniProt Q80SS6)	100 to 999 nM
O=C(NCCc1ccc(C(F)(F)F)cc1)[C@@H]1CCCN1c1cc(N2CCC(CCO)CC2)nc(C(F)(F)F)n1	mouse TGR5 receptor (Mus musculus, UniProt Q80SS6)	< 100 nM

For the compound shown here, N#Cc1ccc(CCNC(=O)[C@@H]2CCCN2c2cc(N3CCC(CCO)CC3)nc(C(F)(F)F)n2)cc1 , give the reported EC50.
< 100 nM

* * *

measured target: human TGR5 receptor (Homo sapiens)
experimental details: Human TGR5 cAMP production assay (hTGR5-CHO cells, DiscoveRx cAMP XS+ kit)
condition label: luminescent cAMP assay, read-out: Human TGR5 Lum. cAMP Activity (EC50)
pEC50: −log10 of the molar value.
measurement type: pEC50

Illustrative cases are given below, each with its answer.
compound	measured target	pEC50
N#Cc1ccc(CCNC(=O)[C@@H]2CCCN2c2cc(-c3ccc(C#N)cc3)nc(C(F)(F)F)n2)cc1 [Compound 145]	human TGR5 receptor (Homo sapiens)	6.00 to 7.00
CS(=O)(=O)NCCOCCNC(=O)NCCC1CCN(c2cc(N3CC[C@H]3C(=O)NCCc3ccc(C#N)cc3)nc(C(F)(F)F)n2)CC1 [Compound 292]	human TGR5 receptor (Homo sapiens)	> 7.00
C[N+](C)(C)CCC[C@H](NC(=O)CCCC1CCN(c2cc(N3CCC[C@H]3C(=O)NCCc3ccc(C#N)cc3)nc(C(F)(F)F)n2)CC1)C(=O)O [Compound 105]	human TGR5 receptor (Homo sapiens)	> 7.00

For the compound shown here, O=C(CCCC1CCN(c2cc(N3CCC[C@H]3C(=O)NCCc3ccc(Cl)c(Cl)c3)nc(C(F)(F)F)n2)CC1)NCS(=O)(=O)O [Compound 136] , give the reported pEC50.
> 7.00

For the compound shown here, N#Cc1ccc(CCNC(=O)[C@@H]2CCCN2c2cc(-c3ccc(C(F)(F)F)cc3)nc(C(F)(F)F)n2)cc1 [Compound 147] , give the reported pEC50.
6.00 to 7.00

* * *

experimental details: Comparison of PK in DIO mice and lean mice
Format: in vivo, mouse
condition label: mouse, plasma, po, 10 mg/kg, lean mice receiving ABT (150 mg/kg), oral (Table 58)
measurement type: Cmax (nM)
// return numeric value only (unit: nM, not printed)

For the compound shown here, N#Cc1ccc(CCNC(=O)[C@@H]2CCN2c2cc(N3CCC(CCNC(=O)NCCC(=O)O)CC3)nc(C(F)(F)F)n2)cc1 [Compound 268] , give the reported Cmax.
4.2

* * *

measured target: mouse TGR5 receptor (Mus musculus)
Construct: host or cells: HEK293-EBNA (293 c18, ATCC CRL10852)
experimental details: Mouse TGR5 HTRF cAMP production assay (HEK293-EBNA cells, Cisbio cAMP HiRange kit)
Assay type: cell-based
condition label: HEK293-EBNA cells overexpressing mouse TGR5, HTRF cAMP assay
pEC50: −log10 of the molar value.
pEC50 for assorted compounds

smiles	pEC50
O=C(NCCc1ccc(C(F)(F)F)cc1)[C@@H]1CCN1c1cc(N2CCC(CCCC3CCNCC3)CC2)nc(C(F)(F)F)n1	6.00 to 7.00

For the compound shown here, O=C(CCCC1CCN(c2cc(N3CCC[C@H]3C(=O)NCCc3ccc(Cl)cc3)nc(C(F)(F)F)n2)CC1)NCS(=O)(=O)O , give the reported pEC50.
> 7.00

For the compound shown here, N#Cc1ccc(CCNC(=O)[C@@H]2CCCN2c2cc(N3CCC(CCCC(=O)N[C@H](CCCNC(=N)N)C(=O)O)CC3)nc(C(F)(F)F)n2)cc1 , give the reported pEC50.
> 7.00

* * *

pEC50 for assorted compounds
measured target: human TGR5 receptor (Homo sapiens, UniProt Q8TDU6)
experimental details: Human TGR5 cAMP production assay (hTGR5-CHO cells, DiscoveRx cAMP XS+ kit)
condition label: luminescent cAMP assay, read-out: Human TGR5 Lum. cAMP Activity (EC50)
pEC50: −log10 of the molar value.

Illustrative cases are given below, each with its answer.
compound	pEC50
COCC1CCN(c2cc(N3CCC[C@H]3C(=O)NCCc3ccc(C#N)cc3)nc(C(F)(F)F)n2)CC1 [Compound 24]	> 7.00
N#C/N=C(\NCCC(=O)O)NCCC1CCN(c2cc(N3CC[C@H]3C(=O)NCCc3ccc(C#N)cc3)nc(C(F)(F)F)n2)CC1 [Compound 351]	> 7.00
N#Cc1ccc(CCNC(=O)[C@@H]2CCCN2c2cc(N3CCC(CCCC(=O)NCCS(=O)(=O)NCC(=O)O)CC3)nc(C(F)(F)F)n2)cc1 [Compound 115]	> 7.00
Cc1csc(-c2cc(N3CCC[C@H]3C(=O)NCCc3ccc(C#N)cc3)nc(C(F)(F)F)n2)c1 [Compound 171]	6.00 to 7.00
N#Cc1ccc(CCNC(=O)[C@@H]2CCCN2c2cc(N3CCC(CCCC(=O)NCS(=O)(=O)O)CC3)cc(C(F)(F)F)n2)cc1 [Compound 198]	> 7.00

For the compound shown here, COc1cc(C(F)(F)F)ccc1CCNC(=O)[C@@H]1CCCN(c2cc(N3CCC(CO)CC3)nc(C(F)(F)F)n2)C1 [Compound 331] , give the reported pEC50.
> 7.00

For the compound shown here, N#Cc1ccc(CCNC(=O)[C@@H]2CCCN(c3cc(N4CCN(CCn5ccnc5)CC4)nc(C(F)(F)F)n3)C2)cc1 [Compound 318] , give the reported pEC50.
6.00 to 7.00

Values from patent US10654834B2
